Test system: primary human hepatic stellate cells (donor 1)
Assay: scaled lipid accumulation score (0 = DMSO-like, 1 = nortriptyline-like); higher = stronger HSC inactivation (lipid re-accumulation), active = hit call of the paper
Conditions: library stock concentration: 3.33 mM; 48 h
Counter-ions that a name gives are not always drawn. Among all 5,800 compounds or so, about 620 (11%) showed activity.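 The calls were made as follows: active = score above a cut-off or among the top three wells of a plate; in these data no inactive exceeds 0.85.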 Shown is part of a subset that was picked to be rich in actives.
Choose the fitting class; nothing outside yes = active, no = inactive is accepted.

Worked examples, 6 molecules total:
molecule	class
O=C(Nc1ccccc1)c1ccccc1O [Salicylanilide]	no
COc1cc(-c2cc(-c3cccc(O)c3)cnc2N)cc(OC)c1OC	no
COC(=O)[C@]12CCC(C)(C)C[C@H]1[C@H]1C(=O)C=C3[C@@]4(C)C=C(C#N)C(=O)C(C)(C)[C@@H]4CC[C@@]3(C)[C@]1(C)CC2 [Bardoxolone Methyl]	no
O=[N+]([O-])c1ccc2c(c1)S(=O)(=O)C=C2 [Stattic]	yes
CC[C@@H]([C@H](C)O)n1ncn(-c2ccc(N3CCN(c4ccc(OC[C@@H]5CO[C@@](Cn6cncn6)(c6ccc(F)cc6F)C5)cc4)CC3)cc2)c1=O [Posaconazole]	no
N=C(N)NC(=N)N1CCOCC1 [Moroxydine HCl]	no

Record request — test call for O=c1ncn2nc(Sc3ccc(F)cc3F)ccc2c1-c1c(Cl)cccc1Cl no

How did this test come out for N#CCNC(=O)c1ccc(-c2ccnc(Nc3ccc(N4CCOCC4)cc3)n2)cc1 ? yes

Recorded test call requested for C[C@H]1[C@H](C)CC[C@]2(C(=O)O)CC[C@]3(C)C(=CC[C@@H]4[C@@]5(C)CC[C@H](O)C(C)(C)[C@@H]5CC[C@]43C)[C@H]12 [Ursolic Acid] no

Please indicate how the test categorized O=S(=O)(O)Oc1ccc(C(c2ccc(OS(=O)(=O)O)cc2)c2ccccn2)cc1 [Sodium Picosulfate] . no

Recorded test outcome, item O=S(=O)(NCCNC/C=C/c1ccc(Br)cc1)c1cccc2cnccc12 [H-89, Dihydrochloride] no

Identify the outcome logged in this assay for the molecule shown: O=C(Nc1cc2cc[nH]c2cn1)c1ccccc1 no

Hi, sorry to bother you, what did the test record for CNCC[C@H](Oc1cccc2ccccc12)c1cccs1 [Duloxetine HCl] ? no

Write down the call the test reported for this molecule. Item: c1ccc2c(Oc3nc(Nc4ccc(N5CCOCC5)cc4)c4ncn(C5CCCCC5)c4n3)cccc2c1 [Purmorphamine] no

How did this test come out for NC(=O)Cc1cccc(C(=O)c2ccccc2)c1N [Nepafenac] ? no

Short answer needed: outcome of this test for CCN(CC)CCOCCOC(=O)C1(c2ccccc2)CCCC1 [Pentoxyverine Citrate] ? no

Can you look up the reported call for CN(C)Cc1c(C(=O)NCCOc2ccc(C(=O)NO)cc2)oc2ccccc12 for me? yes

Lab log entry: CCCCc1c(-c2ccc(O)cc2)[nH]c2nccnc12 [Aloisine A, RP107] — outcome as called in the assay? no

Hi, sorry to bother you, what did the test record for Cc1c(NC(=O)OC[C@@H]2COCCN2)cn2ncnc(Nc3ccc4c(cnn4Cc4cccc(F)c4)c3)c12.Cl ? yes

What is the recorded call for this molecule in the test? CCCSc1nc(N[C@@H]2C[C@H]2c2ccc(F)c(F)c2)c2nnn([C@@H]3C[C@H](OCCO)[C@@H](O)[C@H]3O)c2n1 [Ticagrelor] no

Would you mind telling me which call this test gave O=C(Nc1cc(Cl)cc2c1[nH]c1cnccc12)c1cccnc1 [IKK Inhibitor X] ? no

Tell me the assay call for CC(C)(C)c1ccc(S(=O)(=O)Nc2ccc(-n3ccnc3)cc2)cc1 [Stem-Cell Factor/c-Kit Inhibitor, ISCK03] please. no

Each molecule tested received a call. Report the one for CN(C)[C@@H](CCOc1cccc2ccccc12)c1ccccc1 [Dapoxetine HCl] . no

* * *

Test system: primary human hepatic stellate cells (donor 1)
Assay: scaled lipid accumulation score (0 = DMSO-like, 1 = nortriptyline-like); higher = stronger HSC inactivation (lipid re-accumulation), active = hit call of the paper
Details: library stock concentration: 10 mM; 48 h
Where a name gives a salt, the structure may show the parent alone. The whole screen tested about 5,800 compounds, of which about 620 (11%) showed activity.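 How the source made its calls: active = score above a cut-off or among the top three wells of a plate; in these data no inactive exceeds 0.85.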 What follows is part of a selection rich in actives, with near analogues and random picks from the rest.
Return exactly one item of active, inactive

For orientation, consider the following solved cases.
compound	class
C=CCN1CCc2c(cc(O)c(O)c2Cl)C(c2ccccc2)C1 (centres undefined)	inactive
N[C@@H](Cc1cc(I)c(Oc2cc(I)c(O)c(I)c2)c(I)c1)C(=O)O	inactive
N[C@@H](Cc1cc(I)c(Oc2cc(I)c(O)c(I)c2)c(I)c1)C(=O)O [L-Thyroxine]	inactive
OC[C@H]1NC[C@@H](O)[C@@H](O)[C@@H]1O [1-Deoxymannojirimycin hydrochloride]	inactive
Nc1nc2c(cnn2CCc2ccccc2)c2nc(-c3ccco3)nn12	inactive

In this assay, the call recorded for CS(=O)(=O)c1ccc(-n2nc(C(F)(F)F)cc2-c2ccc(F)cc2)cc1 was what? inactive

What is the recorded call for this compound in the test? O=C(O)c1cc2ccccc2[nH]1 inactive

Hi team, can someone confirm the assay call for CCCc1c(OCC(O)COc2ccc3c(=O)cc(C(=O)O)oc3c2CCC)ccc(C(C)=O)c1O (centres undefined) ? inactive

State the result this test recorded for Nc1ccc(-c2cccc3c(=O)cc(N4CCOCC4)oc23)cc1 . inactive

What did this assay record as the result for CCS(=O)(=O)Nc1ccc2[nH]c(O)c(C(=Nc3ccc(CN4CCCCC4)cc3)c3ccccc3)c2c1 ? inactive

Fill in: this test's call for COc1cc(/C=C/C(N)=O)cc(OC)c1OC is ___ inactive

Called result for Cc1cc(C)c(S(=O)(=O)Nc2ccccc2C(F)(F)F)c(C)c1 inactive

* * *

The following compounds are shown together with reported scaled lipid accumulation score values.
System: primary human hepatic stellate cells (donor 1)
Test: scaled lipid accumulation score (0 = DMSO-like, 1 = nortriptyline-like); higher = stronger HSC inactivation (lipid re-accumulation), active = hit call of the paper
Conditions: library stock concentration: 8.7 mM; 48 h
Screen size: about 5,800 compounds; about 620 (11%) showed activity. What follows is part of a selection rich in actives, with near analogues and random picks from the rest.

compound	scaled lipid accumulation score
CC(C)[C@@H]1NC(=O)[C@H](Cc2ccccc2)NC(=O)[C@@H](CC(=O)O)NC(=O)CNC(=O)[C@H](CCCN=C(N)N)NC1=O [Cyclo [Arg-Gly-Asp-D-Phe-Val]]	≤ -0.003 (inactive)

What value of scaled lipid accumulation score has been recorded for this entry: N=C(N)NC(=O)c1nc(Cl)c(N)nc1N [Amiloride] ≤ -0.006 (inactive)

What value of measured scaled lipid accumulation score is listed for COc1ccc2cc(C(C)C(=O)O)ccc2c1 (stereo not drawn) [Naproxen(+)] ? 0.014 (inactive)

scaled lipid accumulation score lookup needed for C[N+](C)(C)[C@@H](Cc1c[nH]c(=S)[nH]1)C(=O)[O-] , thanks. ≤ -0.006 (inactive)

Name the reported scaled lipid accumulation score value associated with the compound N=C(N)N/N=C/c1c(Cl)cccc1Cl [Guanabenz acetate] 0.227 (inactive)

* * *

Tested on: primary human hepatic stellate cells (donor 1)
Assay: scaled lipid accumulation score (0 = DMSO-like, 1 = nortriptyline-like); higher = stronger HSC inactivation (lipid re-accumulation), active = hit call of the paper
Conditions: library stock concentration: 2 mM; 48 h
About 620 (11%) of roughly 5,800 compounds showed activity.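 Rule for the calls: active = score above a cut-off or among the top three wells of a plate; in these data no inactive exceeds 0.85.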 This excerpt belongs to a sample that is enriched for actives.
In this exercise, the only acceptable responses are active, inactive

> print(dat)
                                   compound     class
1  c1cc(-c2cnn3cc(-c4ccc(OCCN5CCCCC5)cc4)cnc23)ccn1 [Dorsomorphin]  inactive
2  Cc1cnc(Nc2ccc(OCCN3CCCC3)cc2)nc1Nc1cccc(S(=O)(=O)NC(C)(C)C)c1  inactive
3  C=CC(=O)Nc1ccc2ncnc(Nc3ccc(OCc4cccc(F)c4)c(Cl)c3)c2c1  inactive
4  Cc1ccc2c(c1)C(=O)C1(O)CCN(c3ccccc3)C1=N2 (single isomer, unassigned; (-)) [(-)-Blebbistatin]  inactive
5        Oc1ccc(Nc2nc(-c3ccc(Cl)cc3)cs2)cc1  inactive

Tell me the recorded outcome of this test for O=C(NCCCNc1nc(Nc2cccc(CN3CCOCC3)c2)ncc1C1CC1)C1CCC1 . inactive

Outcome? C[C@H]1Oc2cc(cnc2N)-c2c(nn(C)c2C#N)CN(C)C(=O)c2ccc(F)cc21 inactive

* * *

scaled lipid accumulation score overview
System: primary human hepatic stellate cells (donor 1)
Assay: scaled lipid accumulation score (0 = DMSO-like, 1 = nortriptyline-like); higher = stronger HSC inactivation (lipid re-accumulation), active = hit call of the paper
Conditions: library stock concentration: 10 mM; 48 h
In all, about 5,800 compounds went through this assay and about 620 (11%) showed activity. Only a selection was taken, and actives are over-represented in it overall.

Sample answers from the record:
> print(dat)
                                   compound                       experimental.target  experimental.result
1  Cc1ccc(F)c(NC(=O)Nc2ccc(-c3cccc4[nH]nc(N)c34)cc2)c1 [Linifanib (ABT-869)]  primary human hepatic stellate cells (donor 1)       ≤ 0 (inactive)
2  COc1ccc2c(c1)CCC1C2CCC2(C)C(NCCCCCCN3C(=O)C=CC3=O)CCC12 (stereo not given)  primary human hepatic stellate cells (donor 1)     0.397 (inactive)
3          S=c1[nH]c(-c2ccccc2)cn1-c1ccccc1  primary human hepatic stellate cells (donor 1)   ≤ -0.07 (inactive)

Sample Cc1ccc(F)c(NC(=O)Nc2ccc(-c3cccc4[nH]nc(N)c34)cc2)c1 — what was its scaled lipid accumulation score? 0.446 (inactive)

What value of measured scaled lipid accumulation score is listed for OCCCNc1cc(-c2ccnc(Nc3cccc(Cl)c3)n2)ccn1 ? 0.957 (active)
